meta.source: ChEMBL document CHEMBL2010693

As shown below, each of these compounds has a reported CC50 at 48 h value.
Experiment: Cytotoxicity against african green monkey Vero cells after 48 hrs by MTT assay
Type: cell-based
Settings: chlorocebus sabaeus, read-out: LC50
Answer format: numeric, µM implied, no suffix.

O=C1c2ccccc2-c2[nH]c3ccccc3c21	48
COc1cc([C@@H]2c3cc4c(cc3[C@@H](O[C@@H]3O[C@@H]5CO[C@@H](C)O[C@H]5[C@H](O)[C@H]3O)[C@H]3COC(=O)[C@H]23)OCO4)cc(OC)c1O [ETOPOSIDE]	18
COc1cc2c(cc1OC)-c1[nH]c3ccccc3c1C2=O	54
COc1cc2c(c(OC)c1OC)-c1c(c3ccccc3n1C)C2=O	39

Now, please, on to the next compound.
The reported CC50 at 48 h of the compound O=C1c2ccccc2-c2c1c1ccccc1n2Cc1ccccc1 was 53

---

Experiment: Cytotoxicity against african green monkey Vero cells after 72 hrs by MTT assay
Type: cell-based
Conditions: chlorocebus sabaeus, read-out: LC50
As shown below, each of these molecules has a reported CC50 at 72 h value.

COc1cc2c(c(OC)c1OC)-c1c(c3ccccc3n1C)C2=O	35 µM
COc1cc2c(cc1OC)-c1[nH]c3ccccc3c1C2=O	55 µM
O=C1c2cc(F)ccc2-c2[nH]c3ccccc3c21	65 µM
O=C1c2ccccc2-c2c1c1ccccc1n2Cc1ccccc1	45 µM

Now, please, on to the next molecule.
The reported CC50 at 72 h of the molecule O=C1c2ccccc2-c2[nH]c3ccccc3c21 was 40 µM

---

Experiment: Cytotoxicity against african green monkey Vero cells after 24 hrs by MTT assay
Format: cell-based
Settings: chlorocebus sabaeus, read-out: LC50
Property: CC50 at 24 h

Please review the following examples before continuing.
O=C1c2ccccc2-c2c1c1ccccc1n2Cc1ccccc1	57 µM
COc1cc2c(c(OC)c1OC)-c1c(c3ccccc3n1C)C2=O	42 µM
O=C1c2cc(F)ccc2-c2[nH]c3ccccc3c21	> 100 µM
O=C1c2ccccc2-c2[nH]c3ccccc3c21	56 µM

Now, please, on to the next compound.
The reported CC50 at 24 h of the compound COc1cc2c(cc1OC)-c1[nH]c3ccccc3c1C2=O was 47 µM
